Test system: A549 NSCLC
Experiment: NCI tumour cell line growth inhibition, 48 h; in the data active = GI50 below about 0.43 µM; inactive = the rest
Possible outcomes: yes (1) for active, no (0) for inactive

[[record]]
chem_smiles = "COc1ccc(-c2nc(N3CCOCC3)c3sc(CN(C)c4ncc(C(=O)NO)cn4)cc3n2)cn1"
target_entity = "A549 NSCLC"
label = "yes (1)"

[[record]]
chem_smiles = "O=C(O)c1cccc2cccc(C(=O)O)c12.[Hg]"
target_entity = "A549 NSCLC"
label = "no (0)"

[[record]]
chem_smiles = "O=C1CC[C@H](c2ccc(O)c3c2C(=O)[C@@H]2O[C@@H]2C3=O)c2cccc(O)c21"
target_entity = "A549 NSCLC"
label = "no (0)"

